Data origin: ChEMBL document CHEMBL1201862

# Tested on: COLO 205
# EXPERIMENT_SUMMARY: NCI tumour cell line growth inhibition, 48 h
Active and inactive are the calls of the source. No stated cut-off is given here; in the data, active = GI50 up to about 1.1 µM and inactive = higher.
Kindly state GI50 for each of the entries shown.

(Q) # GI50 lookup, item COC(=O)[C@@]1(C)C(=O)CC[C@@H]1C=O
(A) > 100 µM (inactive)

(Q) Subsequent entry: CC1CC(=O)Nc2nc3ccccc3n21 (configuration not stated)
(A) > 100 µM (inactive)

(Q) Subsequent entry: O=C(O)[C@@H]1NC[C@H]2C(Br)=NO[C@H]21
(A) > 100 µM (inactive)

(Q) Subsequent entry: CC(=O)NNc1nc(C)c(C(=O)/C=C/C=C/c2ccccc2)s1
(A) > 100 µM (inactive)

(Q) Subsequent entry: CCCCCC(/C=C/[C@@H]1[C@H]2CC(=O)O[C@H]2C[C@H]1N1CCOCC1)OC1CCCO1 (some centres not stated)
(A) > 100 µM (inactive)

(Q) Subsequent entry: CCN(CC)CCNc1ccc2ncn3c4c(OC)ccc(O)c4c(=O)c1c23
(A) 5.87 µM (inactive)

(Q) Subsequent entry: Cc1cc(C)c(-n2c(-c3ccc(Br)cc3)cs/c2=N\N=C2C=C(C(C)(C)C)C(=O)C(C(C)(C)C)=C2)c(C)c1
(A) > 100 µM (inactive)

(Q) Subsequent entry: Clc1cc(OC2C3CC4CC(C3)CC2C4)nc(Cl)n1 (configuration not stated)
(A) 18.6 µM (inactive)

(Q) Subsequent entry: CCCCCCCCCCCCC(O)C(=O)O (configuration not stated)
(A) > 100 µM (inactive)

(Q) Subsequent entry: O=C(O)C(Br)Cc1ccc2c(c1)OCO2 (configuration not stated)
(A) 55.7 µM (inactive)

(Q) Subsequent entry: N#CC(/C(CCCC(=O)Nc1cccc([N+](=O)[O-])c1)=N/NC(=O)c1cc2ccccc2cc1O)c1ccccc1 (configuration not stated)
(A) 23.6 µM (inactive)

(Q) Subsequent entry: Nc1cccc2c1-c1c(cccc1[N+](=O)[O-])C2=O
(A) > 100 µM (inactive)

(Q) Subsequent entry: CCOC(=O)C1=C(C)N(c2ccc(Cl)cc2)C2(O)C=CC(Nc3ccc(Cl)cc3)=C3C(=O)N(c4ccccc4)C(=O)C312 (configuration not stated)
(A) 2.44 µM (inactive)

(Q) Subsequent entry: CC(=O)OC[C@@]1(C)[C@@H]2[C@@H]3[C@@]4(CO[C@]3(C)C(=O)[C@@]3(OC(C)=O)C[C@H](C)[C@H](OC(C)=O)[C@@H]3[C@H]4OC(C)=O)[C@H](OC(=O)c3ccccc3)C[C@@H]21
(A) 49.8 µM (inactive)

(Q) Subsequent entry: [O-][S+]1Cc2ccccc2CS1 (configuration not stated)
(A) 15.4 µM (inactive)

(Q) Subsequent entry: O=C1/C(=C/c2ccc(O)cc2)CCCC1CN1CCCCC1 (configuration not stated)
(A) 2.16 µM (inactive)

(Q) Subsequent entry: COC(=O)C1C(=O)C(C(=O)OC)C2CCC1N2C (configuration not stated)
(A) > 100 µM (inactive)

====

# Test system: IGROV-1
# EXPERIMENT_SUMMARY: NCI tumour cell line growth inhibition, 48 h
Calls of active or inactive are those of the source. Cut-off read from the data, not from the text of the source: active = GI50 up to about 1.1 µM and inactive = higher.
Kindly state GI50 for each of the entries shown.

(Q) API: value(readout=GI50, system=IGROV-1) for record COc1c(-c2cccs2)oc2c(CC(=O)O)cccc2c1=O
(A) > 100 µM (inactive)

(Q) Subsequent entry: O=C(O)c1c[nH]c2c(=O)[nH]cnc12
(A) > 100 µM (inactive)

(Q) Subsequent entry: O=C(OCc1nc2ccc(Br)cc2c(=O)n1-c1ccccc1)c1ccccc1O
(A) > 100 µM (inactive)

(Q) Subsequent entry: COC(=O)C1=CCS(=O)(=O)C1
(A) > 100 µM (inactive)

(Q) Subsequent entry: CN(N=O)C(=O)N[C@H]1C(O)O[C@H](CO)[C@@H](O)[C@@H]1O (stereo not given in full)
(A) 618 µM (inactive)

====

# Tested on: MCF7
# EXPERIMENT_SUMMARY: NCI tumour cell line growth inhibition, 48 h
The source made the active and inactive calls. Rule as the data show it: active = GI50 up to about 1.1 µM and inactive = higher.
I would appreciate it if you answered using one of these outcomes: active, inactive

(Q) # fetch the recorded call for COC(=O)[C@@]12CC3CN(Cc4c1[nH]c1ccccc41)C2CC3=O here
(A) inactive

(Q) Subsequent entry: Clc1cc(OC2C3CC4CC(C3)CC2C4)nc(Cl)n1 (stereo not drawn)
(A) inactive

(Q) Subsequent entry: N#Cc1c(N2CCC(O)C2)c2ccccc2n2c1nc1ccccc12 (stereo not drawn)
(A) inactive

(Q) Subsequent entry: Cc1nc2c(O)cc3c4c([nH]c3c2nc1C)C(=O)CCC4
(A) active

(Q) Subsequent entry: COc1cc2c(c(O)c1O)C(=O)C1CCC(=O)N1C2c1cccc2ccccc12 (stereo not drawn)
(A) inactive

(Q) Subsequent entry: COC(=O)C[C@@H]1C(C)(C)[C@@H]2O[C@@]34C[C@@H]2C(=O)[C@]1(C)[C@H]3CC[C@@]1(C)[C@H](c2ccoc2)OC(=O)C[C@]14O
(A) inactive

(Q) Subsequent entry: CCCNC(=O)CCC(C)[C@H]1CCC2C3C(C[C@H](OC(C)=O)[C@@]21C)[C@@]1(C)CCC2(C[C@H]1C[C@H]3OC(C)=O)OOC1(CCCCC1)OO2 (stereo partly drawn)
(A) inactive

(Q) Subsequent entry: CCOC(=O)c1c(SCCO)n(-c2ccccc2)c(=S)n(-c2ccccc2)c1=O
(A) inactive

====

# System: OVCAR-4
# EXPERIMENT_SUMMARY: NCI tumour cell line growth inhibition, 48 h
Calls of active or inactive are those of the source. No stated cut-off is given here; in the data, active = GI50 up to about 1.1 µM and inactive = higher.
Kindly state GI50 for each of the entries shown.

(Q) # GI50 lookup, item c1ccc(P2c3ccccc3Nc3ccccc32)cc1
(A) 38.8 µM (inactive)

(Q) Subsequent entry: O=c1[nH]c(=O)n(C2CC(O)C(CO)O2)cc1C#Cc1cc(F)cc(F)c1 (stereo not drawn)
(A) > 100 µM (inactive)

(Q) Subsequent entry: COC(=O)CCC(=O)NC1=C(Nc2ccccc2)C(=O)c2ccccc2C1=O
(A) 10.5 µM (inactive)

(Q) Subsequent entry: COC1=CC(C2c3cc4c(cc3[C@@H](Nc3ccc([N+](=O)[O-])cc3)C3COC(=O)[C@H]23)OCO4)=CC(=O)C1=O (stereo partly drawn)
(A) 59.3 µM (inactive)

(Q) Subsequent entry: COc1cc2c(cc1OC)C(C(CBr)CBr)N(C1CCCC1)CC2 (stereo not drawn)
(A) > 100 µM (inactive)

(Q) Subsequent entry: CC(C)(C)OC(=O)Nc1cc(-c2ccccc2)co1
(A) > 100 µM (inactive)

(Q) Subsequent entry: C=Cc1c(C)c(O)cc2c1-c1ccc(O)c(C)c1CC2
(A) 17.1 µM (inactive)

(Q) Subsequent entry: CC(=O)Oc1ccc(O)c2c1CCCC2
(A) 19 µM (inactive)

====

# System: SF-539
# EXPERIMENT_SUMMARY: NCI tumour cell line growth inhibition, 48 h
The source made the active and inactive calls. Cut-off read from the data, not from the text of the source: active = GI50 up to about 1.1 µM and inactive = higher.
Kindly state GI50 for each of the entries shown.

(Q) # GI50 lookup, item CCOC(=O)C1=C(C)N(c2ccc(Cl)cc2)C2(O)C=CC(Nc3ccc(Cl)cc3)=C3C(=O)N(c4ccccc4)C(=O)C312 (centres undefined)
(A) 3.87 µM (inactive)

(Q) Subsequent entry: COC(=O)C1C(=O)C(C(=O)OC)C2CCC1N2C (centres undefined)
(A) 33.5 µM (inactive)

(Q) Subsequent entry: C=CC(CBr)CCC(Br)C(C)(C)Br (centres undefined)
(A) > 10 µM (inactive)

(Q) Subsequent entry: O=C(OCc1nc2ccc(Br)cc2c(=O)n1-c1ccccc1)c1ccccc1O
(A) > 100 µM (inactive)

(Q) Subsequent entry: CCOc1ccc(NCC2CC/C(=C\c3ccccc3OC)C2=O)cc1 (centres undefined)
(A) 10.3 µM (inactive)

(Q) Subsequent entry: C1=C[C@@H]2c3ccc4cnccc4c3NC[C@@H]2C1
(A) > 100 µM (inactive)

(Q) Subsequent entry: C=CC(OC(=O)C(C)C)c1ccc(OC(=O)C(C)C)cc1 (centres undefined)
(A) 17 µM (inactive)

(Q) Subsequent entry: O=C1N=C(Nc2ccccc2Cl)SC1C(=O)Nc1ccc([N+](=O)[O-])cc1[N+](=O)[O-] (centres undefined)
(A) > 100 µM (inactive)

(Q) Subsequent entry: N#Cc1c(O)n(-c2ccccc2)c(=O)c2c(N)n[nH]c12
(A) > 100 µM (inactive)

(Q) Subsequent entry: C/C(=N\Nc1nc2ccccc2s1)c1cnccn1
(A) 5.24 µM (inactive)

(Q) Subsequent entry: C/N=C(N)/N=C(\N)Nc1cc2ccccc2c2ccccc12
(A) 15.2 µM (inactive)

(Q) Subsequent entry: O=C1C/C(=C/c2ccc(/C=C3/CC(=O)N(c4cccc(Br)c4)C3=O)cc2)C(=O)N1c1cccc(Br)c1
(A) 51.5 µM (inactive)

(Q) Subsequent entry: Nc1nc(N)c2ncn(CC3CCC(CO)C3)c2n1 (centres undefined)
(A) > 100 µM (inactive)

(Q) Subsequent entry: Brc1ccc(C2SCc3nc4ccccc4n32)cc1 (centres undefined)
(A) 18.5 µM (inactive)

(Q) Subsequent entry: Cc1ccc(/N=N/c2cc(=O)[nH]c(=O)[nH]2)cc1C
(A) 11.2 µM (inactive)

(Q) Subsequent entry: Nc1sccc1S(=O)(=O)c1ccsc1N
(A) > 100 µM (inactive)

(Q) Subsequent entry: COc1ccc(C(c2c(O)c3ccccc3n(-c3ccccc3)c2=O)c2c(O)c3ccccc3n(-c3ccccc3)c2=O)cc1
(A) > 100 µM (inactive)

(Q) Subsequent entry: COc1ccc2[nH]c3c(c2c1)[C@H](C)C[C@@H]1C(=O)N(c2ccccc2)C(=O)[C@H]31
(A) 21.2 µM (inactive)

(Q) Subsequent entry: Cc1cc(NCC2CC/C(=C\C=C\c3ccccc3)C2=O)no1 (centres undefined)
(A) > 100 µM (inactive)

(Q) Subsequent entry: COc1ccc(C(=O)Cn2c(C(=O)/C=C/c3ccco3)nc3ccccc32)cc1
(A) 34 µM (inactive)

(Q) Subsequent entry: O=C1C(=Cc2ccc(O)cc2)N=C(c2ccccc2)N1n1c(-c2ccccc2)nc2ccccc2c1=O
(A) > 100 µM (inactive)

(Q) Subsequent entry: BrC(/C=N/Nc1nnc(-c2ccccc2)c(-c2ccccc2)n1)C(Br)c1ccccc1 (centres undefined)
(A) 28.4 µM (inactive)

(Q) Subsequent entry: COC1=CC(=O)C2C(C1=O)C(c1ccccc1)[C@H]2C (some centres undefined)
(A) > 100 µM (inactive)

(Q) Subsequent entry: C=C1C(=O)OC2CC1C(OC(=O)/C=C/c1ccccc1)C/C(C)=C/CC/C(C)=C/CCC2(C)O (centres undefined)
(A) 1.46 µM (inactive)

(Q) Subsequent entry: C#C[C@@]1(O)CCCC2=CC(=O)C[C@]21C
(A) > 100 µM (inactive)

(Q) Subsequent entry: CN(N=O)C(=O)N[C@H]1C(O)O[C@H](CO)[C@@H](O)[C@@H]1O (some centres undefined)
(A) 612 µM (inactive)

(Q) Subsequent entry: COC(=O)C[C@@H]1C(C)(C)[C@@H]2O[C@@]34C[C@@H]2C(=O)[C@]1(C)[C@H]3CC[C@@]1(C)[C@H](c2ccoc2)OC(=O)C[C@]14O
(A) > 100 µM (inactive)

(Q) Subsequent entry: Cc1cc(C)[n+]2c(c1)C=CC2.[O-][Cl+3]([O-])([O-])[O-]
(A) 22.8 µM (inactive)

(Q) Subsequent entry: O=C1/C(=C/c2ccc(O)cc2)CCCC1CN1CCCCC1 (centres undefined)
(A) 3.94 µM (inactive)
